Test system: Rattus norvegicus
ASSAY OVERVIEW: Anti-dynamic allodynia effect in Sprague-Dawley rat SNL model assessed as latency to paw withdrawal 100 mg/kg, ip after 1.5 hrs
Type: functional
RUN PARAMETERS: route intraperitoneal
Binary call on Activity: yes from 2 s upward, no beneath that.

Input: Please indicate if the recorded Activity for `O=C(O)CCCNC(=O)NN=C1CCCC1` meets or exceeds 2 s.
Output: yes

Input: Please indicate if the recorded Activity for `O=C(O)CCCNC(=O)N/N=C/c1ccc([N+](=O)[O-])cc1` meets or exceeds 2 s.
Output: no

Input: Please indicate if the recorded Activity for NC(=O)N1c2ccccc2C=Cc2ccccc21 [CARBAMAZEPINE] meets or exceeds 2 s.
Output: yes

Input: Please indicate if the recorded Activity for `O=C(O)CCCNC(=O)N/N=C(\c1ccccc1)c1ccc(Br)cc1` meets or exceeds 2 s.
Output: yes

Input: Please indicate if the recorded Activity for `Nc1nnc(-c2cccc(Cl)c2Cl)c(N)n1` meets or exceeds 2 s.
Output: no

----------
Please go through the items and note down their log10 Activity.
System: Rattus norvegicus
ASSAY OVERVIEW: Effect on spontaneous pain in Sprague-Dawley rat SNL model assessed as duration of paw withdrawal at 100 mg/kg, ip after 1.5 hrs
Type: functional
RUN PARAMETERS: route intraperitoneal
Annotation: log10 of Activity, s basis.

Input: Annotate the molecule `CN(C)c1ccc(/C=N/NC(=O)NCCCC(=O)O)cc1` with its measured log10 Activity.
Output: 1.21

Input: Annotate the molecule `NCC1(CC(=O)O)CCCCC1` with its measured log10 Activity.
Output: 1.01

Input: Annotate the molecule `O=C(O)CCCNC(=O)NN=C(c1ccccc1)c1ccccc1` with its measured log10 Activity.
Output: 1.13

Input: Annotate the molecule `O=C(O)CCCNC(=O)NN=C1CCCCC1` with its measured log10 Activity.
Output: 1.03

Input: Annotate the molecule `Nc1nnc(-c2cccc(Cl)c2Cl)c(N)n1` with its measured log10 Activity.
Output: 0.41

Input: Annotate the molecule `C/C(=N\NC(=O)NCCCC(=O)O)c1ccc(C)cc1` with its measured log10 Activity.
Output: 0.81

Input: Annotate the molecule NC(=O)N1c2ccccc2C=Cc2ccccc21 [CARBAMAZEPINE] with its measured log10 Activity.
Output: 1.35

Input: Annotate the molecule `O=C(O)CCCNC(=O)N/N=C/c1ccc(Cl)cc1` with its measured log10 Activity.
Output: 1.10

Input: Annotate the molecule `O=C(O)CCCNC(=O)N/N=C(\c1ccccc1)c1ccc(Br)cc1` with its measured log10 Activity.
Output: 1.36

Input: Annotate the molecule `O=C(O)CCCNC(=O)N/N=C1\C(=O)Nc2ccccc21` with its measured log10 Activity.
Output: -0.05

Input: Annotate the molecule `O=C(O)CCCNC(=O)NN=C(Cc1ccccc1)Cc1ccccc1` with its measured log10 Activity.
Output: 0.95

----------
Tested on: Mus musculus
ASSAY OVERVIEW: Anticonvulsant activity in Swiss Albino mouse at 300 mg/kg, ip after 4 hrs by MES test
Format: functional, organism-based
Parameters: dose 300 mg/kg
Active and inactive are the calls of the source. The rule behind the calls is not given here.
QUANTITY KIND: Activity

// solved cases for Activity follow
O=C(O)CCCNC(=O)N/N=C/c1ccc([N+](=O)[O-])cc1: inactive
CN(C)c1ccc(/C=N/NC(=O)NCCCC(=O)O)cc1: inactive
C/C(=N\NC(=O)NCCCC(=O)O)c1ccc(C)cc1: inactive
C/C(=N\NC(=O)NCCCC(=O)O)c1cccc(N)c1: Active
C/C(=N\NC(=O)NCCCC(=O)O)c1ccc([N+](=O)[O-])cc1: inactive

Input: Annotate the compound `O=C(O)CCCNC(=O)N/N=C1\C(=O)Nc2ccccc21` with its measured Activity.
Output: Active

Input: Annotate the compound `O=C(O)CCCNC(=O)NN=C1CCCCC1` with its measured Activity.
Output: inactive

Input: Annotate the compound `O=C(O)CCCNC(=O)N/N=C(\c1ccccc1)c1ccc(Br)cc1` with its measured Activity.
Output: inactive

Input: Annotate the compound `O=C(O)CCCNC(=O)NN=C(c1ccccc1)c1ccccc1` with its measured Activity.
Output: inactive

Input: Annotate the compound CC(=O)Oc1ccccc1C(=O)O [ASPIRIN] with its measured Activity.
Output: inactive

Input: Annotate the compound CCC1(C)CC(=O)NC1=O (stereo not drawn) with its measured Activity.
Output: inactive

Input: Annotate the compound `O=C(O)CCCNC(=O)N/N=C/c1ccccc1O` with its measured Activity.
Output: inactive

Input: Annotate the compound `O=C(O)CCCNC(=O)NN=C1CCCC1` with its measured Activity.
Output: Active

Cited source: ChEMBL document CHEMBL1139875
